Would you kindly list T/C for each of these molecules?
System: L1210 leukemia ip in BDF1 mice, survival T/C
Assay: NCI In Vivo Anticancer Drug Screen. Data for tumor model L1210 Leukemia (intraperitoneal) in B6D2F1 (BDF1) mice
Settings: endpoint: mean survival time; dose: 200.0 mg/kg/injection; schedule: Q01DX009 (ip); vehicle: Klucel (hydroxypropylcellulose) (HPC); higher = longer survival
Toxic doses and inconclusive results are not listed.

Any idea what T/C came out for COc1c(NC(=O)c2ccc(C(=O)Nc3cccc([N+](=O)[O-])c3OC)cc2)cccc1[N+](=O)[O-] on L1210 leukemia ip in BDF1 mice, survival T/C?
100 % of control

What would you report for CN(C)c1ccc(C=C(C#N)C#N)cc1 ?
105 % of control

What would you report for O=C(NC(=O)C(Cl)Cl)OC1c2cc(Cl)ccc2-c2c(Cl)cc(Cl)cc21 (stereo unspecified) ?
89 % of control

What would you report for O=C(Nc1cccc(F)c1)Nc1ccccc1Cl ?
97 % of control

What would you report for CC(=O)OCCN1C(=O)CN=C(c2ccccn2)c2cc(Cl)ccc21 ?
102 % of control

What would you report for O=C(c1ccco1)C1Cc2ccccc2C1=O (stereo unspecified) ?
94 % of control

What would you report for CC(C)(C)c1ccc(Oc2ccc([N+](=O)[O-])cc2[N+](=O)[O-])c(Br)c1 ?
96 % of control

What would you report for CC(C)(C)NC(=O)NCc1ccc(Cl)c(Cl)c1 ?
93 % of control

What would you report for O=C1C(I)=CC(=C(c2cc(I)c(O)c(I)c2)c2ccccc2C(=O)O)C=C1I ?
89 % of control

What would you report for CCCCC(CC)CCC(O)CC(C)C (stereo unspecified) ?
101 % of control

What would you report for COc1cccc(C(=NC(=O)c2ccccc2)c2ccccc2)c1 ?
97 % of control

What would you report for O=C(c1ccccc1)c1cccc(Cl)c1 ?
100 % of control

What would you report for NP(=O)(CCl)NC12CC3CC(CC(C3)C1)C2 (stereo unspecified) ?
93 % of control

What would you report for O=C(c1ccccc1)c1ccccc1 ?
97 % of control

What would you report for CCOP(=S)(OCC)SCc1c(C)c(C)c(CSP(=S)(OCC)OCC)c(C)c1C ?
103 % of control

What would you report for Cc1cc(C)c(NC(=O)c2ccco2)cc1C ?
92 % of control

What would you report for COc1cc(CCCC(=O)O)c(OC)c(C)c1C ?
103 % of control

What would you report for N#CCCN(CCC#N)c1ccc(C=O)cc1 ?
103 % of control

What would you report for O=C(O)CC(SC(c1ccccc1)(c1ccccc1)c1ccccc1)C(=O)O (stereo unspecified) ?
90 % of control

What would you report for CC(C)CCC[C@@H](C)[C@H]1CC[C@H]2[C@@H]3CC=C4C[C@@H](O)CC[C@]4(C)[C@H]3CC[C@]12C ?
91 % of control

What would you report for CN(C)c1ccc(C=Nc2ccc(Cc3ccncc3)cc2)cc1 ?
98 % of control

What would you report for C1=CCC2OC2C1 (stereo unspecified) ?
103 % of control

What would you report for COC(=O)C1(N)CCCC1 ?
104 % of control

What would you report for CSc1ccccc1C(=O)NNS(=O)(=O)c1ccc(C)cc1 ?
103 % of control

What would you report for Cc1cccc(C2CCCC2c2ccccc2)c1 (stereo unspecified) ?
89 % of control

What would you report for Clc1ccc(C2OCCO2)cc1 ?
95 % of control
